Entries and their Vd
Experimental Protocol: Rat PK test
Format: in vivo
Reported Conditions: plasma, iv; male Sprague-Dawley rat, caudal vein administration, 0.5 mg/kg; CLp multiplied by MRT; read-out: Vdss
Give the value in L/kg but do not write L/kg after it.

Would you please look over these solved cases?
| Compound | Vd, L/kg |
| --- | --- |
| Cc1ccn(-c2ccc(C(=O)N3CCC(C)(C(=O)NC(C)CO)Cc4ccccc43)c(Cl)c2)n1 (single isomer, unassigned) | 0.96 |
| Cc1ccn(-c2ccc(C(=O)N3CCC(C)(C(=O)NC(C)CO)Cc4ccccc43)c(C(F)(F)F)c2)n1 (single isomer, unassigned) | 1.23 |
| C[C@@H]1CN(C(=O)c2ccc(-n3cccn3)cc2Cl)c2ccccc2CN1C(=O)NCCO [comparative compound 1, reference compound] | 4.72 |

Item: CC(NC(=O)C1(C)CCN(C(=O)c2ccc(N3CCCC3)cc2C(F)(F)F)c2ccccc2C1)C(N)=O (single isomer, unassigned) | Vd: 1.08
